From: patent US20250163043A1

# experimental_system: CDK9/CycT1 (Homo sapiens)
# Sequence (P50750 whole entry): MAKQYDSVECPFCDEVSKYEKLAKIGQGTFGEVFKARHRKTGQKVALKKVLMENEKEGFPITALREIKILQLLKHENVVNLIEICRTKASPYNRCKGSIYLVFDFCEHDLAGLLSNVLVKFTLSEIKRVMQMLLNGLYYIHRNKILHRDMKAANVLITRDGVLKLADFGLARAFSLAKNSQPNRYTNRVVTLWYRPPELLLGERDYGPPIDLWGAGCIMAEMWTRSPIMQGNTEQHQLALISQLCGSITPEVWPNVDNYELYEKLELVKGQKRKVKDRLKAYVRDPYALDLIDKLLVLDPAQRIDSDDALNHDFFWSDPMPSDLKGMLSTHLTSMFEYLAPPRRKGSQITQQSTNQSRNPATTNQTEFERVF
# Sequence (O60563 whole entry partner): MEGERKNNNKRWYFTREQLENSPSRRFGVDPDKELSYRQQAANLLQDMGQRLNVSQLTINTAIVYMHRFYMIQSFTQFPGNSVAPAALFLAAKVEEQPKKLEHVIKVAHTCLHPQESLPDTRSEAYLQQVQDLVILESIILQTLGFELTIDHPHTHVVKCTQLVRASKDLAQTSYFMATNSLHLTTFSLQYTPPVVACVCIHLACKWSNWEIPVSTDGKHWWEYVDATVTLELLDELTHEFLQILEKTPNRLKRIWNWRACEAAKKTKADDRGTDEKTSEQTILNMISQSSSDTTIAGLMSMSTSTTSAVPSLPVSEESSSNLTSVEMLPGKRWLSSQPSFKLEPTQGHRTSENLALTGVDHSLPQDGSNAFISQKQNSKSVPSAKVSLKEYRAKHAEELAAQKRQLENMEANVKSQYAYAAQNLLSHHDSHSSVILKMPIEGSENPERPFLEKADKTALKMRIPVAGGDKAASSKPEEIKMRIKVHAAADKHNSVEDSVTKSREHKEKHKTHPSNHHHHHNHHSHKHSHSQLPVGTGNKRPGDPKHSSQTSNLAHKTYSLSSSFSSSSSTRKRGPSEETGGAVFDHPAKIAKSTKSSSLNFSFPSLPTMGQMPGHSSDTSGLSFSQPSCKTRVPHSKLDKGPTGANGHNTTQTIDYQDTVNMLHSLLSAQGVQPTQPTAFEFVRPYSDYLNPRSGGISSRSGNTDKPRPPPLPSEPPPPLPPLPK
# procedure_summary: ADP-Glo kinase assay on CDK enzymatic activity, CDK9/CycT1
# Format: biochemical
# measurement_context: 10 concentrations from 10 μM, 4-fold, 60 min room temperature
quantity: IC50 (nM)
Write the value in nM as a bare number.

## Input Can you share its IC50? I mean this molecule: CCNc1nc(C#N)cc2cnc(N[C@H]3C[C@H](N)C3)nc12
## Output 1

## Input // returns reported IC50 for input CC(C)(C)Nc1nc(C(F)F)cc2cnc(N[C@H]3C[C@@H](N)C3)cc12
## Output 1

## Input What measured IC50 goes with CC(C)Nc1nc(C#N)cc2cnc(N[C@H]3CCCN(C)C3)cc12 ?
## Output 30

## Input Would you kindly share the measured IC50 for CC(C)Nc1nc(C#N)cc2cnc(N[C@H]3CC[C@@H](N)CC3)nc12 ?
## Output 10

## Input I have this molecule here, CC(C)Nc1nc(C#N)cc2cnc(N[C@H]3C[C@H](N)C3)nc12 , and I need its recorded IC50.
## Output 1

## Input I'd like to know its IC50. The molecule in question is CC(C)Nc1nc(C#N)cc2cnc(N[C@H]3C[C@@H](N)C3)nc12
## Output 2

## Input I have this molecule here, CC(C)Nc1nc(C#N)cc2cnc(N[C@H]3CC[C@H](N)CC3)nc12 , and I need its recorded IC50.
## Output 2

## Input # get_value(readout='IC50', item= CC(C)Nc1nc(C#N)cc2cnc(NC3CNC3)nc12 )
## Output 7

## Input Request the reported IC50 associated with CC(C)Nc1nc(C#N)cc2cnc(N[C@H]3C[C@H](CN)C3)nc12
## Output 2

## Input Name the recorded IC50 for N#Cc1cc2cnc(N[C@H]3CCCNC3)cc2c(N[C@H](CO)c2ccccc2)n1 .
## Output 10

## Input Which IC50 is reported for this molecule? CC(=O)N[C@@H]1CCC[C@H](C(=O)Nc2cc3c(NC4CC4)nc(C#N)cc3cn2)C1
## Output 20

## Input Quick one: IC50 of CC(C)Nc1nc(C#N)cc2cnc(N[C@@H]3CNCC[C@@H]3F)cc12 ?
## Output 18

## Input Any idea what its IC50 is? The molecule is CCC(CC)c1nc(C#N)cc2cnc(N[C@H]3CCCNC3)cc12
## Output 10

## Input IC50 lookup needed for N#Cc1cc2cnc(N[C@H]3CCCNC3)cc2c(NC2COC2)n1 , thanks.
## Output 15

## Input // query IC50 value for entry CC(C)Nc1nc(C#N)cc2cnc(N[C@@H]3C[C@H]4COC[C@@H](C3)N4)nc12
## Output 6

## Input Entry under review: CC1(Nc2nc(C#N)cc3cnc(N[C@H]4C[C@H](N)C4)nc23)CC1 . Reported IC50?
## Output 1

## Input What value of measured IC50 is listed for CC(C)Nc1nc(C#N)cc2cnc(N[C@@H]3CCOC3)nc12 ?
## Output 6

## Input For CCOc1nc(C#N)cc2cnc(N[C@H]3CCCNC3)cc12 , what is its reported IC50?
## Output 12

## Input Param item = N#Cc1cc2cnc(N[C@H]3CCCNC3)cc2c(N[C@@H]2CCOC2)n1 ; retrieve measured IC50.
## Output 2

## Input Which IC50 is listed for CCOc1nc(C#N)cc2cnc(N[C@H]3C[C@H](N)C3)nc12 ?
## Output 24

###

For each of the molecules below, state its IC50.
# experimental_system: CDK2/CycA2 (Homo sapiens)
# procedure_summary: ADP-Glo kinase assay on CDK enzymatic activity, CDK2/CycA2
# Format: biochemical
# measurement_context: 10 concentrations from 10 μM, 4-fold, 60 min room temperature
Give your result in nM as a bare value.

## Input What value of IC50 has been reported for the following molecule? CC(C)Nc1nc(C#N)cc2cnc(N[C@@H]3CN[C@H](CO)C3)cc12 [Compound 37]
## Output 520

## Input # IC50 lookup, item CC(C)Oc1nc(C#N)cc2cnc(N[C@H]3CCCNC3)cc12 [Compound 153]
## Output 562

## Input What value of IC50 has been recorded for this entry: CC(C)Nc1nc(C#N)cc2cnc(NC3CC4(CNC4)C3)nc12 [Compound 130]
## Output 74

## Input For CCC(CC)Nc1nc(C#N)cc2cnc(N[C@H]3CC[C@H](N)C3)cc12 [Compound 48] , what is its reported IC50?
## Output 199

## Input Record request: IC50 value, item CC(C)Nc1nc(C#N)cc2cnc(N[C@H]3CCCN(C)C3)cc12 [Compound 57]
## Output 427

## Input What does the data say about its IC50? Entry: CC(=O)N1CCC[C@H](C(=O)Nc2cc3c(NC(C)C)nc(C#N)cc3cn2)C1 [Compound 24]
## Output 3340

## Input # get_value(readout='IC50', item= CCNc1nc(C#N)cc2cnc(N[C@H]3C[C@H](N)C3)cc12 [Compound 184] )
## Output 125

## Input // query IC50 value for entry CC(C)(C)Nc1nc(C#N)cc2cnc(N[C@H]3CCCNC3)cc12 [Compound 149]
## Output 126

## Input Which IC50 is reported for this molecule? N#Cc1cc2cnc(N[C@H]3CCCNC3)cc2c(NC2CC2)n1 [Compound 175]
## Output 489

## Input Find the recorded IC50 belonging to CC(=O)N[C@@H]1CCC[C@H](C(=O)Nc2cc3c(NC(C)(C)C)nc(C#N)cc3cn2)C1 [Compound 15] and report it.
## Output 182

## Input Which IC50 value belongs to CC(C)Nc1nc(C#N)cc2cnc(N[C@H]3CC[C@@H](N)C3)cc12 [Compound 29] ?
## Output 514

## Input Any idea what IC50 was measured for CC(C)Nc1nc(C#N)cc2cnc(N[C@H]3CC[C@H](C)NC3)nc12 [Compound 107] ?
## Output 443

## Input // query IC50 value for entry CC(=O)N[C@H]1C[C@@H](Nc2cc3c(NC(C)C)nc(C#N)cc3cn2)C1 [Compound 167]
## Output 19

## Input // query IC50 value for entry N#Cc1cc2cnc(N[C@H]3CCCNC3)cc2c(C2CCCC2)n1 [Compound 187]
## Output 958

## Input Dear colleague, I am looking for the recorded IC50 of the following molecule: N#Cc1cc2cnc(N[C@H]3CCCNC3)cc2c(N[C@H]2CCOC2)n1 [Compound 151]
## Output 1290

## Input Item CC(C)Nc1nc(C#N)cc2cnc(N[C@H]3CC[C@H](N)C3)nc12 [Compound 45] has what recorded IC50?
## Output 47

## Input What IC50 value was documented for this molecule, CC(C)Nc1nc(C#N)cc2cnc(N[C@H]3CC[C@H](N)CC3)nc12 [Compound 136] ?
## Output 13

## Input Item under review: CC(C)Nc1nc(C#N)cc2cnc(N[C@H]3C[C@H](O)C3)nc12 [Compound 134] . Reported IC50?
## Output 5

## Input Query (molecule): CC(C)(C)Oc1nc(C#N)cc2cnc(N[C@H]3CCCNC3)cc12 [Compound 152] ; field requested: IC50
## Output 267

## Input Please give the measured IC50 for this molecule: CC(C)Nc1nc(C#N)cc2cnc(N[C@@H]3CNCC(F)(F)C3)cc12 [Compound 43]
## Output 13

###

# experimental_system: CDK1/CycE1 (Homo sapiens, UniProt P06493)
# Sequence (P06493 whole entry, species assumed): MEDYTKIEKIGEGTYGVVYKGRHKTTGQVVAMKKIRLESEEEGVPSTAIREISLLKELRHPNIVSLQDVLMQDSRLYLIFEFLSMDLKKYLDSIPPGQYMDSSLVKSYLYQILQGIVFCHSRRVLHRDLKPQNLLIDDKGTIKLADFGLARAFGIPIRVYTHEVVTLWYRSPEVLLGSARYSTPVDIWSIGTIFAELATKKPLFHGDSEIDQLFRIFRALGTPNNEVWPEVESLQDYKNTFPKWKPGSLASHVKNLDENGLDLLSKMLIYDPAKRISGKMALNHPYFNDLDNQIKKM
# Sequence (P24864 whole entry partner, species assumed): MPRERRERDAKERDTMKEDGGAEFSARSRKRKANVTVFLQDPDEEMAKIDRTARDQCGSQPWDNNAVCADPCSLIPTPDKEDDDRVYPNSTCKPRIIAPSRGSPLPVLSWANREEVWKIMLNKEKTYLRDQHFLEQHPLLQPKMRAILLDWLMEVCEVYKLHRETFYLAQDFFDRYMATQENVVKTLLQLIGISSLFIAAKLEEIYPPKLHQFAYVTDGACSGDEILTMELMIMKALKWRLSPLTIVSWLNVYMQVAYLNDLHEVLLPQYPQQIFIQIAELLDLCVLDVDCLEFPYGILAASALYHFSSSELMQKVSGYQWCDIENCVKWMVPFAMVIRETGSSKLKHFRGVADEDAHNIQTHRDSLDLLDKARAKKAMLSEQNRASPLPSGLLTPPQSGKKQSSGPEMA
# procedure_summary: ADP-Glo kinase assay on CDK enzymatic activity, CDK1/CycE1
# Assay type: biochemical
# measurement_context: ADP-Glo; 10 concentrations from 10 μM, 4-fold; 60 min room temperature; read-out: CDK1/CycE1/nM (IC50)
Provide the recorded IC50 for the entries that follow.
Field: value (include unit after the number)

## Input Which value of IC50 has been reported for CC(C)Oc1nc(C#N)cc2cnc(N[C@H]3C[C@@H](N)C3)cc12 in the records?
## Output 14 nM

## Input Return reported IC50; argument: N#Cc1cc2cnc(N[C@H]3CCCNC3)cc2c(N[C@@H]2CCOC2)n1
## Output 608 nM

## Input Reported IC50, compound CC1(Nc2nc(C#N)cc3cnc(N[C@H]4C[C@H](N)C4)nc23)CC1 : ____
## Output 112 nM

## Input Endpoint output: IC50 of COC[C@@H](C)Nc1nc(C#N)cc2cnc(N[C@H]3C[C@H](N)C3)nc12 . Value?
## Output 540 nM

## Input For the compound shown here, N#Cc1cc2cnc(N[C@H]3CCCNC3)cc2c(C2CCCC2)n1 , give the reported IC50.
## Output 413 nM

## Input # get_value(readout='IC50', item= CC(C)(C)Nc1nc(C(F)F)cc2cnc(NC3CCNCC3)nc12 )
## Output 48 nM

###

# experimental_system: CDK2/CycA2 (Homo sapiens, UniProt P24941)
# procedure_summary: ADP-Glo kinase assay on CDK enzymatic activity, CDK2/CycA2
# Type: biochemical
# measurement_context: 10 concentrations from 10 μM, 4-fold, 60 min room temperature
Use IC50 to assign classes; range list: low value: < 70 nM; medium value: ≥ 70 nM and < 300 nM; high value: ≥ 300 nM

## Input Tag the class for CCN(CC)c1nc(C#N)cc2cnc(N[C@H]3CCCNC3)cc12
## Output high value

## Input Band assignment needed for N#Cc1cc2cnc(N[C@H]3C[C@H](N)C3)nc2c(NC23CC(C2)C3)n1 please.
## Output low value

## Input Consider CC(C)Nc1nc(C#N)cc2cnc(N[C@H]3C[C@@H](CO)C3)nc12 . To which IC50 class does it belong?
## Output low value

## Input Which IC50 category applies to N#Cc1cc2cnc(N[C@H]3CC[C@H](N)C3)cc2c(N[C@@H]2CCOC2)n1 here?
## Output high value

## Input Band for the recorded IC50 of CC(C)Nc1nc(C#N)cc2cnc(N[C@H]3CCNC3)cc12 ?
## Output high value

## Input Category of N#Cc1cc2cnc(N[C@H]3CCCNC3)cc2c(NC2CCCC2)n1 :
## Output medium value

## Input Returns: class label. Input: CC(=O)N[C@@H]1CCC[C@H](C(=O)Nc2cc3c(NC4(C)CC4)nc(C#N)cc3cn2)C1
## Output medium value

## Input Given CC(C)Nc1nc(C(F)F)cc2cnc(N[C@H]3CC[C@H](N)C3)cc12 , name the class its IC50 places it in.
## Output low value

## Input Which IC50 category applies to CC(C)(C)Nc1nc(C(F)F)cc2cnc(NC3CCNCC3)nc12 here?
## Output low value

## Input Dear colleague, I would appreciate it if you could identify the bin for C#Cc1cc2cnc(NC(=O)[C@H]3CCC[C@@H](NC(C)=O)C3)cc2c(NC(C)C)n1 and reply at your convenience.
## Output high value

## Input GET /class?item= CC(C)(C)Nc1nc(C#N)cc2cnc(N[C@H]3C[C@@H](N)C3)cc12
## Output medium value

## Input Please indicate the class for CC(C)(C)Nc1nc(C#N)cc2cnc(N[C@H]3CC[C@H](N)C3)cc12 based on its IC50.
## Output medium value

## Input Lab note: which band did CC(C)Nc1nc(C#N)cc2cnc(N[C@H]3C[C@@H](N)C3)cc12 land in?
## Output medium value

## Input Hi there! Could you help me figure out the category for CC1(Nc2nc(C#N)cc3cnc(N[C@H]4CC[C@H](N)C4)cc23)CC1 please?
## Output medium value

## Input Determine which band this compound sits in: CC(C)Nc1nc(C#N)cc2cnc(N[C@H]3C[C@@H](N)C3)nc12
## Output medium value

## Input Band for CC(C)Nc1nc(C#N)cc2cnc(N[C@H]3CC[C@H](O)C3)nc12 ?
## Output low value

## Input Note: place this compound into its band. Item: N#Cc1cc2cnc(N[C@H]3C[C@H](N)C3)nc2c(N2CCCCC2)n1
## Output medium value

## Input Hello team, could you let me know which band the following compound falls into: CC(C)Nc1nc(C#N)cc2cnc(N[C@H]3C[C@H](CO)C3)nc12
## Output low value

## Input Record CCOc1nc(C#N)cc2cnc(N[C@H]3C[C@H](N)C3)cc12 — which class?
## Output high value

## Input Lab note: which band did COCCN[C@H]1CC[C@H](Nc2cc3c(NC(C)C)nc(C#N)cc3cn2)C1 land in?
## Output high value

## Input Which class holds CC(C)(C)Nc1nc(C#N)cc2cnc(N[C@H]3C[C@H](N)C3)nc12 ?
## Output low value

## Input Hello team, could you let me know which band the following compound falls into: N#Cc1cc2cnc(N[C@H]3CCCNC3)cc2c(C2=CCCC2)n1
## Output medium value
